Molecular target: T1, B-RCAL (BÜHLMANN recombinant calprotectin; His6-linker-S100A9-linker-S100A8)
T1 chain: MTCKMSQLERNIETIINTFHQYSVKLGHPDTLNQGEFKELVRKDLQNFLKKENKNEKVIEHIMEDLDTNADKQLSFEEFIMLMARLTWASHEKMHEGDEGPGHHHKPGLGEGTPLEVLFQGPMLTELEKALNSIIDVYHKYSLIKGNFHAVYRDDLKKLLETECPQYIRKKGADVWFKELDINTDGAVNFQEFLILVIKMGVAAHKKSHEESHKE
Assay: fluorescence polarisation
Settings: chain shown with the change; in the presence of calcium ions; Cys3-Cys4 chemically bridged; three independent measurements
pKd: −log10 of the molar value.

BINDER: RSPESVAFPMFQCHWYCG [peptide 3 isomer 1 (dumbbell shaped, double-bridged) C2S; C5S]
pKd: 7.75
